# assay-procedure: Bioavailability in monkey
# Format: ADME, organism-based, Macaca fascicularis
# measurement-context: cynomolgus monkey, in vivo
readout-label: bioavailability (%)
// units = %; emit number, no label

**Q:** Bench note: what bioavailability did C[C@@H]1CN(Cc2ccc(F)cc2)[C@@H](C)CN1C(=O)COc1ccc(Cl)cc1CS(=O)(=O)O show?
**A:** 19

---

Quick reference for bioavailability among some compounds
# assay-procedure: Bioavailability in rat
# Format: ADME, organism-based
# measurement-context: in vivo
Give the value in % but do not write % after it.

Here's what some known entries look like.
C[C@@H]1CN(Cc2ccc(F)cc2)CCN1C(=O)COc1ccc(Cl)cc1NC(N)=O [BX 471 FREE BASE] = 2
C[C@@H]1CN(Cc2ccc(F)cc2)[C@@H](C)CN1C(=O)COc1ccc(Cl)cc1CS(=O)(=O)O = 40

We now examine a further compound.
**Q:** Requested read-out: bioavailability. Entry: C[C@@H]1CN(Cc2ccc(F)cc2)[C@@H](C)CN1C(=O)COc1ccc(Cl)cc1C(=O)CCC(=O)O
**A:** 9
